Procedure text: NCI Yeast Anticancer Drug Screen. Data for the rad50 strain (AID 155);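 also: 0% = growth of vehicle-only cultures of the same strain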
Condition summary: S. cerevisiae rad50 strain growth inhibition; at 50.0 µM
Compounds without any hit were thinned out: in the full panel of roughly 79,000, 15% have a hit. Activity calls are given as the source filed them. Rule as the data show it: active = growth inhibition above about 70%; inactive = the rest.
The categories you may choose from are yes (1) = active, no (0) = inactive

Compound: Cc1cc(=O)[nH]c(NN2C(Cl)C(=O)C2c2c(O)ccc3ccccc23)n1 (centres undefined)
Qualitative label: no (0)

Compound: CCCCCCCCCCCCCCCC(=O)OCC1OC(OC(=O)CCCCCCCCCCCCCCC)C(OC(=O)CCCCCCCCCCCCCCC)C(OC(=O)CCCCCCCCCCCCCCC)C1OC(=O)CCCCCCCCCCCCCCC (centres undefined)
Qualitative label: no (0)

Compound: Cc1cc(=O)c2c(Br)ccc(Br)c2[nH]1
Qualitative label: no (0)

Compound: C/C=C/c1cc(C=O)cc(OC)c1O
Qualitative label: no (0)

Compound: COC(=O)c1cc(C(=O)c2ccccc2)cc2c1c(=O)[nH]c1ccccc12
Qualitative label: no (0)

Task item: Look up the recorded call for COC(=O)C1C2CC3C(OC(=O)C31)C2OC(=O)[C@](OC)(c1ccccc1)C(F)(F)F (some centres undefined) in this test.
Reply: no (0)

Task item: Record lookup: outcome of this test for CC(=O)COC(C)=O ?
Reply: no (0)

Task item: Which result was noted for this compound in the test: CSCCCS/C1=C/CCCCCCCCCC1
Reply: no (0)

Task item: Please indicate how the test categorized O=C(CN1C(=O)c2ccccc2C1=O)NCC(=O)N(C(=O)NC1CCCCC1)C1CCCCC1 .
Reply: no (0)

Task item: Could you please tell me the result logged for CC(=O)OC(C)CCl (centres undefined) in this assay?
Reply: no (0)

Task item: For Clc1ccc(/C=C2\c3ccccc3-c3nc4ccccc4nc32)cc1 , which call appears in the assay record?
Reply: no (0)

Task item: Which outcome was assigned to CC(C)CCCC(C)C1CCC2C3CCC4CC(N5CCCCC5)CCC4(C)C3CCC12C (centres undefined) in this test?
Reply: no (0)
